- Species on record: Rattus norvegicus
- assay.remarks: Ratio of IC50 (muscarinic acetylcholine receptor M2) to IC50 (muscarinic acetylcholine receptor M1)
Class (required): determined from Ratio; valid ranges are low = under 1, mid = from 1 up to 2, high = 2 and over

As a guide, the following entries are already answered.
> print(dat)
                            compound.string  qualitative.label
1  CNc1cc(NCCSCc2ccc(CN(C)C)o2)c([N+](=O)[O-])cc1[N+](=O)[O-]               high
2  CN(C)Cc1ccc(CSCCNc2ccc(F)cc2[N+](=O)[O-])o1                low
3  CN(C)Cc1ccc(CSCCNc2cc(Nc3ccc(F)cc3)c([N+](=O)[O-])cc2[N+](=O)[O-])o1               high
4  CN(C)CCNc1cc(NCCSCc2ccc(CN(C)C)o2)c([N+](=O)[O-])cc1[N+](=O)[O-]                low
5  CN(C)Cc1ccc(CSCCNc2cc(NCc3ccccc3)c([N+](=O)[O-])cc2[N+](=O)[O-])o1                mid

For `CN(C)Cc1ccc(CSCCNc2cc(N)c([N+](=O)[O-])cc2[N+](=O)[O-])o1` , which Ratio bin applies?
mid

Please report the category associated with `CN(C)Cc1ccc(CSCCNc2cc(NCc3cccnc3)c([N+](=O)[O-])cc2[N+](=O)[O-])o1` , nothing else.
mid

Which class holds `CN(C)Cc1ccc(CSCCNc2cc(Nc3ccccc3C#N)c([N+](=O)[O-])cc2[N+](=O)[O-])o1` ?
mid

Just checking, what class would you give `CC(C)=NNc1cc(NCCSCc2ccc(CN(C)C)o2)c([N+](=O)[O-])cc1[N+](=O)[O-]` here?
mid

Band of `CN(C)Cc1ccc(CSCCNc2cc(NCc3ccccn3)c([N+](=O)[O-])cc2[N+](=O)[O-])o1` ?
mid

Which of the defined bands does the recorded Ratio of `CN(C)Cc1ccc(CSCCNc2cc(NCCCN3CCOCC3)c([N+](=O)[O-])cc2[N+](=O)[O-])o1` sit within?
low

Class (by measured Ratio) for `CN(C)Cc1ccc(CSCCNc2cc(NN)c([N+](=O)[O-])cc2[N+](=O)[O-])o1`
mid

Band assignment needed for `CCCNc1cc(NCCSCc2ccc(CN(C)C)o2)c([N+](=O)[O-])cc1[N+](=O)[O-]` please.
mid

GET /class?item= `CN(C)Cc1ccc(CSCCNc2ccc([N+](=O)[O-])cc2[N+](=O)[O-])o1`
high

Category of `CN(C)Cc1ccc(CSCCNc2cc(F)c([N+](=O)[O-])cc2[N+](=O)[O-])o1` :
high

---

Could you please report measured Ratio for the items listed next?
- experimental.target: Cholinesterases; ACHE & BCHE (Homo sapiens) (UniProt P06276+P22303)
- Sequence (P06276 whole entry, looked up): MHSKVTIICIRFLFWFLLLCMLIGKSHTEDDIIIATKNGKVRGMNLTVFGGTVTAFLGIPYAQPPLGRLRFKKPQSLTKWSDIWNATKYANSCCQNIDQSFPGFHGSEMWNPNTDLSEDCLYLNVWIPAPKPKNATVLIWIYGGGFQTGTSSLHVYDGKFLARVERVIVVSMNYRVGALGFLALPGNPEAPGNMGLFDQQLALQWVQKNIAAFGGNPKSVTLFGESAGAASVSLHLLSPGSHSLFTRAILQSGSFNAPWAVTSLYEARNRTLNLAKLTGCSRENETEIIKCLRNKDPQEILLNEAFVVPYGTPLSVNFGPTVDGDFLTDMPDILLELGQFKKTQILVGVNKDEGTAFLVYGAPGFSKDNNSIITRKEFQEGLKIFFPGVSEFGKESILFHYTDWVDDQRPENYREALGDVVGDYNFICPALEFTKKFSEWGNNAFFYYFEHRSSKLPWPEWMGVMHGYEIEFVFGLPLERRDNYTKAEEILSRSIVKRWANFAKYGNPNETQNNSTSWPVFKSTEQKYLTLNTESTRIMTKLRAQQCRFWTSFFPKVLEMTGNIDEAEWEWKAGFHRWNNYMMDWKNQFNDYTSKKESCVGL
- Sequence (P22303 whole entry, looked up): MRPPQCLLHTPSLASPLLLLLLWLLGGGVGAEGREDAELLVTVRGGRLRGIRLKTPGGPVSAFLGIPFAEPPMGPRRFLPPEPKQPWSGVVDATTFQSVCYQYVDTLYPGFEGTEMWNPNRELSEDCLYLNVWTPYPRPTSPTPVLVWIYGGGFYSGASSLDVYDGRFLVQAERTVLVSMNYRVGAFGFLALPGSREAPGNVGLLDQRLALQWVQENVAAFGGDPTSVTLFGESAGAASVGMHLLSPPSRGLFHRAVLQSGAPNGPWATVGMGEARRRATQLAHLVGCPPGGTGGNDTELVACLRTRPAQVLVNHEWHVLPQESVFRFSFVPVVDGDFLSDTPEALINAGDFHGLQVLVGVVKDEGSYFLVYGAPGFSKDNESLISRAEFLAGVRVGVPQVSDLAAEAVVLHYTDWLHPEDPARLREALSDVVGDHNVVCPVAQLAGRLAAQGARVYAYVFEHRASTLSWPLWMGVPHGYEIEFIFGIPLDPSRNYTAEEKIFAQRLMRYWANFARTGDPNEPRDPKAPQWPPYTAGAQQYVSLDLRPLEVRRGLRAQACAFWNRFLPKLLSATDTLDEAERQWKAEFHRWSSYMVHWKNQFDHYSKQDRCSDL
- assay.remarks: Ratio of IC50(BChE-I) to IC50(AChE-I)
- Assay type: protein assay
Numbers only.

Example results:
> print(dat)
                            compound.string                       experimental.target  readout  numeric.value
1  CNc1cc(NCCSCc2ccc(CN(C)C)o2)c([N+](=O)[O-])cc1[N+](=O)[O-]  Cholinesterases; ACHE & BCHE (Homo sapiens) (UniProt P06276+P22303)    Ratio             21
2  CN(C)Cc1ccc(CSCCNc2cc(Nc3ccccc3C#N)c([N+](=O)[O-])cc2[N+](=O)[O-])o1  Cholinesterases; ACHE & BCHE (Homo sapiens) (UniProt P06276+P22303)    Ratio            2.8
3  CN(C)Cc1ccc(CSCCNc2ccc(F)cc2[N+](=O)[O-])o1  Cholinesterases; ACHE & BCHE (Homo sapiens) (UniProt P06276+P22303)    Ratio            5.1
4  CN(C)CCNc1cc(NCCSCc2ccc(CN(C)C)o2)c([N+](=O)[O-])cc1[N+](=O)[O-]  Cholinesterases; ACHE & BCHE (Homo sapiens) (UniProt P06276+P22303)    Ratio            2.8

Shift focus to the following entry.
Using the record for `CN(C)Cc1ccc(CSCCNc2cc(F)c([N+](=O)[O-])cc2[N+](=O)[O-])o1` , report its Ratio.
33
